- Tested on: HL-60(TB) leukemia
- test-method-notes: NCI-60 one-dose screen, 48 h
- condition-details: 10 µM unless noted
This is part of a sample that, as a whole, favours compounds with a hit. Of some 83,000 tested, about 20% had one in any assay. Activity calls are given as the source filed them. Rule for the calls: active = growth percent below 10; inactive = the rest.
Outcome codes: TRUE for active, FALSE for inactive

molecule	subject-of-test	cat
CC(=O)CSC(C)=O	HL-60(TB) leukemia	FALSE
O=C1c2cccc3c([N+](=O)[O-])ccc(c23)C(=O)N1CCCCl	HL-60(TB) leukemia	TRUE
CC(C)(C)c1ccc(S(=O)(=O)N[C@H]2CC[C@H]3[C@@H]4CCc5cc(O)ccc5[C@H]4CC[C@]23C)cc1	HL-60(TB) leukemia	FALSE
O=C(COc1cccc(/C=C2\Cc3ccccc3C2=O)c1)c1ccc(Cl)cc1	HL-60(TB) leukemia	FALSE
CCOC(=O)C1=C(CSC(=S)N(C2CCCCC2)C2CCCCC2)N(C)C(=O)NC1c1ccccc1 (centres undefined)	HL-60(TB) leukemia	FALSE
OCC1OC(n2ccc3c(NO)ncnc32)C(O)C1O (centres undefined)	HL-60(TB) leukemia	TRUE
CC1(C)C(=O)/C(=C\c2ccco2)C[C@]2(C)[C@H]3CC=C4[C@@H]5C[C@](C)(C(=O)O)CC[C@]5(C)CC[C@@]4(C)[C@]3(C)CC[C@@H]12	HL-60(TB) leukemia	TRUE
C=C(C)CCC(C)N1CCC(N2CCC(C(=O)NCCc3ccccc3)CC2)CC1 (centres undefined)	HL-60(TB) leukemia	FALSE
O=C1/C(=C\c2ccccc2)CN(C(=O)c2ccccc2)C/C1=C\c1ccccc1	HL-60(TB) leukemia	FALSE
